Value source: patent US20260242735A1

- tgt: human CD33 L134I (human, UniProt P20138 18-364)
- Sequence (P20138 18-364 L134I limits assumed): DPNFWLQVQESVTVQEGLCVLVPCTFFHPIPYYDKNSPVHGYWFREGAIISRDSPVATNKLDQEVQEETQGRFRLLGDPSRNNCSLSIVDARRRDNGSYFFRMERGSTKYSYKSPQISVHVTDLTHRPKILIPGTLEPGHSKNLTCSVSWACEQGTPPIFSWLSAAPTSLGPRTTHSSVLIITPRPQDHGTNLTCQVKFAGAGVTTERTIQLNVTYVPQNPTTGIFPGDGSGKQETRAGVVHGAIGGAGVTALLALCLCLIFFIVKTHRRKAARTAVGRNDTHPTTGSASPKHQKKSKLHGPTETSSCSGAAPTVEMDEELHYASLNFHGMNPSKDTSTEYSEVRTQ
- assay.text: flow cytometry, HEK293-T, IgG;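 further: CD33 point mutants transiently expressed, antibody binding measured by fluorescence in duplicate, background subtracted and scaled to binding on wild-type CD33 as 100%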
endpoint: Mean % WT Binding (% WT binding)
// note: answer is a bare numeric in % WT binding

Query block: For Refmab #4 (antibody, human IgG1, V domains shown, tested in IgG format) VH: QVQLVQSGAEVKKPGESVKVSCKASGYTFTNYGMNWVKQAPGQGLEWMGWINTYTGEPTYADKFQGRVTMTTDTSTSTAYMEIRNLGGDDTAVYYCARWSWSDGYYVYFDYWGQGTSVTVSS VL: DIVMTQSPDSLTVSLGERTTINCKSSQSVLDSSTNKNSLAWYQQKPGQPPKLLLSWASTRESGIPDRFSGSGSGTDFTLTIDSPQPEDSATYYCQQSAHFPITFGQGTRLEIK , what is its reported Mean % WT Binding?
Result block: 94.4
